- Test system: SK-MEL-5 melanoma
- ASSAY_PROTOCOL: NCI-60 one-dose screen, 48 h
- STUDY_CONDITIONS: 10 µM unless noted
The panel holds about 83,000 compounds, 20% with a hit somewhere; the sample as a whole holds those more often. The source made the active and inactive calls. Rule for the calls: active = growth percent below 10; inactive = the rest.
Tick one outcome: t for active, f for inactive

Please review the entries below; each comes with its answer.
- MOLECULAR_STRING: "COC(=O)/C(CCC=C(C)C)=C1\\[C@@H](OC(C)=O)C[C@@]2(C)[C@H]1C/C(=N/O)[C@H]1[C@@]3(C)CC/C(=N\\O)[C@@H](C)[C@@H]3CC[C@@]12C"
  CATEGORY_LABEL: "f"
- MOLECULAR_STRING: "CSc1ccc2c3c(n(CCCn4ccnc4)c(=O)c2c1)-c1ccccc1C3=O"
  CATEGORY_LABEL: "f"
- MOLECULAR_STRING: "COc1ccc(C(=O)Nc2ncc(Cc3ccc(Cl)cc3)s2)cc1"
  CATEGORY_LABEL: "t"
- MOLECULAR_STRING: "Oc1ccc(-c2nc3ccc4[nH]ncc4c3c3c2CCCC3)c(F)c1"
  CATEGORY_LABEL: "t"
- MOLECULAR_STRING: "CCOc1ccc(/C=C/C(=O)c2cccc(OCCCOc3cccc(C(=O)/C=C/c4ccc(OCC)cc4)c3)c2)cc1"
  CATEGORY_LABEL: "f"
- MOLECULAR_STRING: "COc1ccc(C/C(C)=C(\\c2ccc(Cl)cc2)c2ccc(OCCCN(C)C)cc2)cc1"
  CATEGORY_LABEL: "f"
- MOLECULAR_STRING: "C=CN(C(=O)N1CCN(c2cc3c(cc2F)c(=O)c(C(=O)O)cn3C2CC2)CC1)c1nc(-c2ccccc2)cs1"
  CATEGORY_LABEL: "f"
- MOLECULAR_STRING: "COc1ccc(-c2cn(Cc3cc4ccccc4s3)nn2)cc1OCCN1CCCCC1"
  CATEGORY_LABEL: "f"

Q: # fetch the recorded call for FC(F)(F)c1[nH]ncc1-c1nc2ccc3[nH]ncc3c2c2c1CCCC2 here
Ans: t
